target: human folate receptor alpha (hFOLR1) on cells (human, UniProt P15328 25-234); assay: cell-based or functional assay
Sequence (P15328 25-234 limits assumed): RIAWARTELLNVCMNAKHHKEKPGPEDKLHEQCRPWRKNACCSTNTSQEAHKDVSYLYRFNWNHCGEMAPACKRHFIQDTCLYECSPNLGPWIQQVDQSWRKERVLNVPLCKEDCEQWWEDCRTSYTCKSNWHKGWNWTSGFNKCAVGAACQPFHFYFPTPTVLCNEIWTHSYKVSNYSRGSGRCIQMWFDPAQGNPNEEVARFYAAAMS
Give measured Igrov 2° Antibody Cell Killing, Nb-SC239, EC50 for each item. Keep answers brief.
One number for each entry, in nM.

The following binders have reported results that may help.
SRP2060-E10 (antibody, V domains shown) VH: EVQLLESGGGLVQPGGSLRLSCAFSGFSLSTFGMGVGWVRQAPGKGLEWVSHIWWDDDKYYHPALKGRFTISKDNSKNTVYLQMNSLRAEDTAVYYCGRNHFPHYYGSSHWYFNVWGQGTTVTVSS VL: EIVMTQSPATLSLSPGERATLSCKASQDINSYLSWYQQKPGQAPRLLIYRANRLVDGIPARFSGSGSGTDYTLTISSLEPEDFAVYYCLQYDEFPYTFGGGTKVEIK : 0.061
SRP2060-E05 (antibody, V domains shown) VH: EVQLLESGGGLVQPGGSLRLSCAFSGFSLSTFGMGVGWVRQAPGKGLEWVSHIWWDDDKYYHPALKGRFTVSKDNSKNTVYLQMNSLRAEDTAVYYCGRNHFPHYYGSSHWYFNVWGQGTTVTVSS VL: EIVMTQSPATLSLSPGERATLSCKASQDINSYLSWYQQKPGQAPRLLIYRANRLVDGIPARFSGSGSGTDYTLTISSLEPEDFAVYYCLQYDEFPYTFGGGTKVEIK : 0.22

-- ask Value lookup for Igrov 2° Antibody Cell Killing, Nb-SC239, EC50; key = SRP2060-B01 (antibody, V domains shown) VH: EVQLLESGGGLVQPGGSLRLSCALSGFSLSTFGMGVGWVRQATGKGLEWVSHIWWDDDKYYHPALKGRFTISKDNSKNTVHLQMNSLRAEDTAVYYCGRNHFPHYYGSSHWYFNVWGQGTTVTVSS VL: DIQMTQSPSTLSASVGDRVTITCKASQDINSYLSWYQQKPGKAPKLLIYRANRLVDGVPSRFSGSGSGTEFTLTISSLQPDDFATYYCLQYDEFPYTFGGGTKVEIK
-- reply 0.045

Cited source for all entries: patent US20220047716A1
